Hey, just so you know, these numbers are from ChEMBL document CHEMBL1201862.

- Tested on: HCC 2998
- method_notes: NCI tumour cell line growth inhibition, 48 h
Active and inactive are the calls of the source. Rule as the data show it: active = GI50 up to about 1.1 µM and inactive = higher.
measured_quantity: GI50

- CCCCCC/C=C1\CCC(CN2CCCC2)C1=O (stereo unspecified): 17.5 µM (inactive)
- COc1cc2c(c(OC)c1)C(=O)O[C@H](C)CCCC/C=C/C2: 15.8 µM (inactive)
- COc1oc(C(=O)NC2CCCCC2)c(-c2ccc(Cl)cc2)c1S(=O)(=O)c1ccccc1: 19 µM (inactive)
- C=C1C(=O)OC2CC(=C)C3CC=C(C)C3CC12 (stereo unspecified): 21.1 µM (inactive)
- C(/Cc1ccc2c(c1)OCO2)=N\N=C1NCCCN1: 41.7 µM (inactive)
- N=C(c1ccccc1)N1CCCCC1: > 100 µM (inactive)
- COC1=C[C@]2(CCC(=O)O2)[C@@H]2Cc3ccccc3[C@H](O)[C@@H]2C1=O: > 100 µM (inactive)
- COC(=O)c1c/c(=N\NC(=O)CC(=O)Nc2ccccc2Cl)c2ccccc2o1: 65.3 µM (inactive)
- O=C1/C(=C\c2cccc(Oc3ccccc3)c2)SC(c2ccccc2)N1Cc1ccccc1 (stereo unspecified): 30.3 µM (inactive)
- Clc1ccc(CSCc2ccc(Cl)cc2Cl)c(Cl)c1: 26.3 µM (inactive)
- c1ccc2c(c1)SCCCS2: > 100 µM (inactive)
- CC1(C)C2CCC13C(=O)C1OC3(C2)C2C(=O)N(c3ccccc3)C(=O)C12 (stereo unspecified): > 100 µM (inactive)
- COc1cccc([C@H]2CC(=O)c3cc4c(cc3N2)OCO4)c1: 0.434 µM (active)
- CCOc1cc2c(cc1O)C(=O)C[C@@H]1[C@@H]2CC[C@]2(C)[C@@H](O)CC[C@@H]12: 1.36 µM (inactive)
- COC(=O)c1cc2c3c(cc(NCCN)c2[nH]1)N(C(=O)c1cc2cc(OC)c(OC)c(OC)c2[nH]1)CC3CCl (stereo unspecified): 0.0982 µM (active)
- CC(NC1CCCC[C@H]1O)c1ccccc1 (stereo partly specified): > 100 µM (inactive)
- CC[C@@]1(O)C(=O)OCc2c1cc1n(c2=O)Cc2cc3c(N)cccc3nc2-1: 0.111 µM (active)
- C[C@]12C=CC(=O)C=C1[C@@H](F)C[C@H]1[C@@H]3CC[C@](O)(C(=O)CO)[C@@]3(C)C[C@H](O)[C@@]12F: > 100 µM (inactive)
- O=Cc1c(Cn2ccnc2)c2cc([N+](=O)[O-])ccc2n1Cc1ccccc1: > 100 µM (inactive)
- C=C1CC(O)C2C(=C)C(=O)OC2C2C(C)C(=O)CC12 (stereo unspecified): 20 µM (inactive)
- CC(C)(Cc1ccccc1)Cc1cc(O)ccc1O: 20 µM (inactive)
- NNC(N)Nc1ccccc1 (stereo unspecified): > 100 µM (inactive)
- C[C@]12CC[C@H]3[C@@H](CC=C4C[C@@H](N5CCCC5)CC[C@@]43C)[C@@H]1C[C@H](N1CCOCC1)[C@@H]2O: > 100 µM (inactive)
- COc1cccc(C2c3cc4c(cc3OC(C)(N3CCCC3)C2C)OCO4)c1OC (stereo unspecified): 19.1 µM (inactive)
- CCOC(=O)C1=CNC(C(=O)OCC)C1c1cccn1-c1ccc(Cl)cc1[N+](=O)[O-] (stereo unspecified): 16.3 µM (inactive)
- OCC(Cn1cncn1)(c1ccc(F)cc1F)n1cncn1 (stereo unspecified): > 100 µM (inactive)
- CCOC(=O)c1ccc(Nc2nc3cc(C(F)(F)F)ccc3nc2-c2ccccc2)cc1: 22.8 µM (inactive)
- C#CC(O)/C=C/C(O)CCCC(O)CC#CC(O)C#CCCCCC(O)/C=C/CCCCCC(=O)CCCCCCCCCCCCCC(O)C(O)C#CC(=O)O (stereo unspecified): > 25 µM (inactive)
- Cc1cc(C)nc(NS(=O)(=O)c2ccc(Nc3c4ccccc4nc4c(C(=O)NCCCN(CCO)CCO)cccc34)cc2)n1: 16.7 µM (inactive)
- CC(C)(C)OC(=O)NC(Cc1ccc(OCc2ccccc2)cn1)C(=O)N1CCCC1 (stereo unspecified): > 100 µM (inactive)
- CCOC(=O)[C@H]1Nc2ccc(Cl)cc2[C@H]2c3ccccc3O[C@H]21: > 100 µM (inactive)
